Target: Mitogen-activated protein kinase kinase kinase 14 (Homo sapiens)
Sequence (Q99558 whole entry): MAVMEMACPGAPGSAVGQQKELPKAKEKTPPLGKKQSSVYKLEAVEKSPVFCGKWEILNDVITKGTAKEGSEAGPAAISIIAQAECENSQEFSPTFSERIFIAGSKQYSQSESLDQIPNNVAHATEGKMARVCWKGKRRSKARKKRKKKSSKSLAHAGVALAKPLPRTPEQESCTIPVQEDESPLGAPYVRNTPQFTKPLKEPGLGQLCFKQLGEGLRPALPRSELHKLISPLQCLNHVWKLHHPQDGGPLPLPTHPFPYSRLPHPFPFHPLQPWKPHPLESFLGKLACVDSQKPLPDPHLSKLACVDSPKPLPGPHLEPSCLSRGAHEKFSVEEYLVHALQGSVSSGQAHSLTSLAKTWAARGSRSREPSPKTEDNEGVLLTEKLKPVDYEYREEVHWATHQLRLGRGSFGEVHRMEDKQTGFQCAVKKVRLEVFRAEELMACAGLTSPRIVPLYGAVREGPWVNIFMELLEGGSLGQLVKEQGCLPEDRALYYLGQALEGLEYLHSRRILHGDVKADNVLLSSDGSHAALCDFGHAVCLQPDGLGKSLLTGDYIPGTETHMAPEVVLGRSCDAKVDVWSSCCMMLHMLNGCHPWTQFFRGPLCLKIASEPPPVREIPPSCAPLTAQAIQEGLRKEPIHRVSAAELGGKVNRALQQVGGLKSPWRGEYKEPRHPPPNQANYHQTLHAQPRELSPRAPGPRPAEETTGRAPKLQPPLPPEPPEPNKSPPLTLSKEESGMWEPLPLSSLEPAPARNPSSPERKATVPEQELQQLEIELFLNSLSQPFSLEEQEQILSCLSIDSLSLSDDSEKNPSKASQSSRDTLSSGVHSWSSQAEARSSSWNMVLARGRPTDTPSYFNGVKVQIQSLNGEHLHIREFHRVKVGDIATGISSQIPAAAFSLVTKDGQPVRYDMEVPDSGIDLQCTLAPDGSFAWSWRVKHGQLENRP
Experiment: Inhibition of NIK (unknown origin) incubated 30 to 60 mins by ADP-Glo Kinase
Each entry below carries its reported pIC50.
Please keep in mind that pIC50 is minus log10 of the molar concentration; only the number is needed.

Below, 6 compounds whose answers are already recorded.
compound	pIC50
CC(O)(C#Cc1cc2n(n1)CCCN2c1ccnc(Nc2cccc(C(F)(F)F)n2)n1)c1nccs1 (stereo not given)	7.78
COc1cc(Nc2nccc(N3CCCn4nc(C#CC(C)(O)c5nccs5)cc43)n2)cc(OC)c1 (stereo not given)	8.17
CC(O)(C#Cc1cc2n(n1)CCCN2c1ccnc(Nc2cc(Cl)ccn2)n1)c1nccs1 (stereo not given)	8.16
CC(O)(C#Cc1cc2n(n1)CCCN2c1ccnc(Nc2ccccc2)c1)c1nccs1 (stereo not given)	7.95
CNc1nccc(N2CCCn3nc(C#CC(C)(O)c4nccs4)cc32)n1 (stereo not given)	7.95
CC(O)(C#Cc1cc2n(n1)CCCN2c1ccnc(Nc2cccc(N3CCOCC3)c2)n1)c1nccs1 (stereo not given)	7.94

Look up pIC50: CC(O)(C#Cc1cc2n(n1)CCCN2c1ccnc(Nc2ccc(F)cc2)n1)c1nccs1 (stereo not given)
8.21

Continue with CC(O)(C#Cc1ccc2c(c1)N(c1nc(N)ncc1Cl)CC2)c1nccs1 (stereo not given)
8.57

Proceed to CC(O)(C#Cc1cc2n(n1)CCCN2c1ccnc(Nc2ccc3c(c2)OCO3)n1)c1nccs1 (stereo not given)
8.55

Moving on to CC(O)(C#Cc1cc2n(n1)CCCN2c1ccnc(Nc2ccc3ccccc3n2)n1)c1nccs1 (stereo not given)
7.66

Numbers sourced from ChEMBL document CHEMBL5518244.
